Values were extracted from PubChem BioAssay (EPA / NIEHS).

Read-out: Macrophage colony-stimulating factor (MCSF), CSF1 (gene 1435)
Experiment: BSK_CASM3C_MCSF: BioMAP Diversity Plus: CASM3C Assay for Macrophage colony-stimulating factor (MCSF) Biomarker Activity (AID 2283044);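 note: M-CSF protein amount quantified by ELISA after 24 h exposure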
Particulars: primary human coronary artery smooth muscle cells; actives raise or lower the signal
Active and inactive are the calls of the source. Rule for the calls: active = hit-call score of the fitted dose curve at least 0.9, where 1 is the maximum; inactive = score below 0.9.
Classes used: 1.0 (active), 0.0 (inactive)

| Smiles data | Label |
| --- | --- |
| Cc1ccc(S(=O)(=O)C(I)I)cc1 | 1.0 |
| C=CC(=O)OCCC(F)(F)C(F)(F)C(F)(F)C(F)(F)F | 0.0 |
| FC(F)(F)C(F)(F)C(F)(F)C(F)(F)C(F)(F)C(F)(F)C(F)(F)CCI | 0.0 |
| CN(C(=O)C(F)(F)C(F)(F)C(F)(F)F)[Si](C)(C)C | 0.0 |
| OCCCCC(F)(F)C(F)(F)C(F)(F)C(F)(F)F | 0.0 |
| NC(=O)C(F)(F)C(F)(F)C(F)(F)C(F)(F)C(N)=O | 0.0 |
| O=S(=O)(O)CCC(F)(F)C(F)(F)C(F)(F)C(F)(F)F | 0.0 |

---

Experiment: ATG_ISRE_CIS: Attagene CIS-FACTORIAL HepG2 Assay for human Interferon Regulatory Factor 1 (IRF1) binding to an Interferon-Stimulated Response Element (ISRE) (AID 2282948)
Particulars: HepG2 ISRE cis-reporter (Attagene), mRNA transcription readout; actives raise or lower the signal
Protocol: ATG_CIS is a cell-based, multiplexed-readout assay that uses HepG2, a human liver cell line, with measurements taken at 24 hours after chemical dosing in a 24-well plate.ATG_ISRE_CIS is one of 52 assay component(s) measured or calculated from the ATG_CIS assay. […] This assay endpoint, ATG_ISRE_CIS, was analyzed with bidirectional fitting relative to DMSO as the negative control and baseline of activity. […]
The source made the active and inactive calls. How the source made its calls: active means hit-call score of the fitted dose curve at least 0.9, where 1 is the maximum; inactive means score below 0.9.
Outcomes: 1 = active, 0 = inactive

| Compound | Label |
| --- | --- |
| CCc1ccc(C)nc1 | 0 |
| CC(C)CC=C(C=O)c1ccccc1 | 0 |
| CCCC(=O)OCC(COC(=O)CCC)OC(=O)CCC | 1 |
| CCC(=O)OC(C)c1ccccc1 (centres undefined) | 0 |
| OCC1CCCO1 (centres undefined) | 0 |
| CC(C)(C)C(=O)C1C(=O)c2ccccc2C1=O | 0 |
| COC(F)(C(F)F)C(F)(F)F (centres undefined) | 0 |
| Cc1ccc(S(=O)(=O)C(I)I)cc1 | 1 |
| Cc1ccc2c(c1)OCC(=O)CO2 | 0 |
| CC1=CCC(=O)O1 | 0 |
| CCOC(=O)C1CC(=O)C(=C(O)C2CC2)C(=O)C1 (centres undefined) | 0 |
| O=S(=O)(O)CCC(F)(F)C(F)(F)C(F)(F)C(F)(F)F | 0 |
| O=C1c2ccccc2C(=O)c2c(Cl)cccc21 | 0 |
| C[C@]12CC[C@H]3C(=CCc4cc(O)ccc43)[C@@H]1CCC2=O | 0 |
| O=C(Cl)C(F)(F)C(F)(F)C(F)(F)C(F)(F)C(F)(F)C(F)(F)C(F)(F)F | 0 |
| F[Si-2](F)(F)(F)(F)F | 0 |
| CCC(Cc1c(I)cc(I)c(N)c1I)C(=O)O (centres undefined) | 1 |
| Oc1ccc2c(c1)CCC2 | 0 |
| CCN(CC)c1ccc(N=Nc2ccccc2)cc1 | 0 |
| COC(=O)c1ccc(C=O)cc1 | 0 |
| C=CC(=O)OCCC(F)(F)C(F)(F)C(F)(F)C(F)(F)F | 0 |
| CO[Si](C)(CCC(F)(F)C(F)(F)C(F)(F)C(F)(F)C(F)(F)C(F)(F)F)OC | 0 |
| CSc1ccc(Cl)cc1 | 0 |
| Cc1cc(=O)[nH]c(C(C)C)n1 | 0 |
| CCCCCCCCCCCCCCCCC | 0 |
| O=C(O)C(F)(F)OC(F)(F)C(F)(F)OC(F)(F)C(F)(F)OC(F)(F)F | 0 |
| CCN=C1C=CC(=C(c2ccc(N(CC)CC)cc2)c2ccc(N(CC)CC)cc2)c2ccccc21 | 1 |
| CC(C)(C)c1cc(CCC(=O)NCCCCCCNC(=O)CCc2cc(C(C)(C)C)c(O)c(C(C)(C)C)c2)cc(C(C)(C)C)c1O | 0 |
| O=C1c2c(O)ccc(Nc3ccc(CCO)cc3)c2C(=O)c2c([N+](=O)[O-])ccc(O)c21 | 0 |
